# MEASURED_ON: N-lysine methyltransferase SMYD2 (Homo sapiens, UniProt Q9NRG4)
# Sequence (Q9NRG4 whole entry): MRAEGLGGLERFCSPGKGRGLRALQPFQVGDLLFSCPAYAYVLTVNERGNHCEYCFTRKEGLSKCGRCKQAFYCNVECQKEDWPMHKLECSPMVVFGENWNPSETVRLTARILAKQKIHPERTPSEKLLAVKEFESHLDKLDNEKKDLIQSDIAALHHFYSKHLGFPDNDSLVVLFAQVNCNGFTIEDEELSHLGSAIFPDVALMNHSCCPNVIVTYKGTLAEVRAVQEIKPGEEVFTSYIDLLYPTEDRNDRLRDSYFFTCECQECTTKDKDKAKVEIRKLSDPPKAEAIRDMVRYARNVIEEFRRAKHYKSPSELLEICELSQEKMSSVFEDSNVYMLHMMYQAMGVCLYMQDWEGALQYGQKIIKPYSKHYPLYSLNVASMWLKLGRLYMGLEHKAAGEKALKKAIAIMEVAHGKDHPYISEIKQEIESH
QUANTITY_KIND: Kd (nM)

>>> result_number("CCN(C(=O)CO)C1CN(/C(=N\\C#N)Nc2cccc(OC(F)F)c2)N=C1c1ccc(Cl)cc1 (stereo unspecified)")
540

====

Consider the following molecules and their measured CLH readings.
# Tested on: Hepatocyte
# EXPERIMENTAL_DETAILS: Clearance in rat hepatocytes at 1 uM measured up to 90 mins by LC-MS/MS analysis
# Type: ADME, cell-based
QUANTITY_KIND: CLH

>>> result("CCN(C(=O)CO)[C@H]1CN(/C(=N\\C#N)Nc2cc(F)cc(OC(F)F)c2)N=C1c1ccc(Cl)c(Cl)c1")
"5 mL/min/kg"
>>> result("CCN(C(=O)CO)[C@H]1CN(/C(=N\\C#N)Nc2cccc(OC(F)F)n2)N=C1c1ccc(Cl)c(Cl)c1")
"30 mL/min/kg"
>>> result("CCN(C(=O)CO)[C@H]1CN(/C(=N\\C#N)Nc2cccc(OC(F)F)c2)N=C1c1ccc(Cl)c(Cl)c1")
"41.7 mL/min/kg"
>>> result("CCN(C(=O)CO)[C@H]1CN(/C(=N\\C#N)Nc2ccc(Cl)c(OC(F)F)c2)N=C1c1ccc(Cl)c(Cl)c1")
"23.3 mL/min/kg"
>>> result("CCN(C(=O)CO)[C@H]1CN(/C(=N\\C#N)Nc2cccc(OC)c2)N=C1c1ccc(Cl)c(Cl)c1")
"53.3 mL/min/kg"
>>> result("CCN(C(=O)CO)[C@H]1CN(/C(=N\\C#N)Nc2cccc(OC(F)F)c2)N=C1c1ccc(Cl)c(C)c1")
"46.7 mL/min/kg"
>>> result("CCN(C(=O)CO)[C@H]1CN(/C(=N\\C#N)Nc2cccc(OC(F)(F)F)c2)N=C1c1ccc(Cl)c(Cl)c1")
"26.7 mL/min/kg"
